Values from the supplement of paper PMC7877785

I'd be grateful if you could share measured self-splicing fitness (ln) for these entries.
assay: self-splicing fitness, log relative to wild type (ln ratio); higher = more splicing; Tetrahymena group I intron in knt gene, E. coli kanamycin selection, DiMSum; sequences stand for … in CUCUCU…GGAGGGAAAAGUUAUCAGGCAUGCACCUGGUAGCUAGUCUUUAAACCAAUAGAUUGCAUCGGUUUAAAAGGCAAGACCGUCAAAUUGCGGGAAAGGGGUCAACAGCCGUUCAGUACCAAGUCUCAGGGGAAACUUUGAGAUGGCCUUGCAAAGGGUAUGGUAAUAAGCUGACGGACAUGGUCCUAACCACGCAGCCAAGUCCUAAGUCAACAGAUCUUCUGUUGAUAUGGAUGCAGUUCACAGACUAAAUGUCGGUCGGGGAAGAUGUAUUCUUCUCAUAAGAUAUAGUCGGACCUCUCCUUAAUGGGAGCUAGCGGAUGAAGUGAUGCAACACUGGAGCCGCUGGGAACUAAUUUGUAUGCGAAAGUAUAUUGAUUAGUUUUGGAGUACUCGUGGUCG; conditions: 30 °C;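 note: selection with 25 µg/mL kanamycin versus none on LB agar overnight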

In the examples that follow, each entry is paired with its recorded self-splicing fitness (ln).
sequence-text: UAAGAGCAAUAUUACGGCGU
measured-value: -1.79
//
sequence-text: UCCGAGCAAUAUUACGAUGG
measured-value: -0.964

The following sequences each have a reported value; give each one's self-splicing fitness (ln).
1. CACUAGCAAUAUUACGGCUG
2. UGUGAGCAAUAUUACGAUUG
3. CAUCAGCAAUAUUACGCAAU
4. CCGCAGCAAUAUUACGACGC
5. CGCAAGCAAUAUUACGGCAA
6. CCCCAGCAAUAUUACGCGGC

1: -0.972; 2: -2.19; 3: -4.01; 4: -3.71; 5: -1.41; 6: -2.98

The following sequences each have a reported value; give each one's self-splicing fitness (ln).
1. UUAAAGCAAUAUUACGGAUC
2. GUCUAGCAAUAUUACGUUCG
3. GGAUAGCAAUAUUACGAGUG
4. GACCAGCAAUAUUACGCUGC
5. UCACAGCAAUAUUACGUACG
6. GAACAGCAAUAUUACGCACC
7. CUAGAGCAAUAUUACGGGCG
8. CGGCAGCAAUAUUACGGAGG

[-1.78, -0.604, -3.38, -3.73, -0.786, -0.638, 0.0237, -1.2]
